Reference source for all entries: paper PMC9738062

Would you mind telling me the reported pIC50 of each entry?
Tested on: lipopolysaccharide-stimulated macrophages (RAW 264.7)
method: Inhibition of nitric oxide production (Griess reagent)
Assay type: cell-based, murine
condition-context: Mus musculus, RAW264.7; LPS 100 ng/mL, 24 h; highest tested concentration 100 µM; read-out: NO Production IC50
Method: The anti-inflammatory activity of the tested flavonolignans was determined as the ability to reduce nitric oxide production by murine macrophages (RAW 264.7) stimulated by bacterial lipopolysaccharides, as previously described. […] For the experiment, 1 × 10^6 cells/mL was seeded into the 96-well plate (100 µL/well). […] The absorbance was measured after 15 min at 540 nm by the SpectraMax i3x microplate reader. Cell viability was determined by resazurin assay.
Answers are plain numbers, as −log10 of the molar value.

O=C1c2c(cc(O)c(Br)c2O)O[C@H](c2ccc(O)c(O)c2)[C@H]1O [compound 7, 6-Bromotaxifolin] :: 4.11
COc1cc([C@@H]2Oc3cc([C@H]4Oc5cc(O)c(Br)c(O)c5C(=O)[C@@H]4O)ccc3O[C@H]2CO)ccc1O [compound 13, 6-Bromosilybin B] :: 4.43

The molecule identified as COc1ccc2c(c1)c(CC(=O)O)c(C)n2C(=O)c1ccc(Cl)cc1 [Indomethacin, reference compound] registered its pIC50 at 4.29
